# System: KB
# protocolText: MTT assay, KB
# Assay type: cell-based
# experimentalContext: Homo sapiens; MTT assay; KB nasopharynx carcinoma; (±s) standard deviation
measuredParameter: IC50
Number plus unit, in that order.

Recorded results for 5 compounds are shown here.
COC(=O)[C@]12CCC(C)(C)CC1C1=CC(=O)C3[C@@]4(C)CC/C(=N\OC(=O)c5cccc([N+](=O)[O-])c5)C(C)(C)C4CC[C@@]3(C)[C@]1(C)CC2 (some centres unmarked) :: 70 µM
CC1(C)CC[C@]2(C(=O)N3CCOCC3)CC[C@]3(C)C(=CCC4[C@@]5(C)CC/C(=N\OC(=O)CCl)C(C)(C)C5CC[C@]43C)C2C1 (some centres unmarked) :: 19.8 µM
COC(=O)[C@]12CCC(C)(C)CC1C1=CCC3[C@@]4(C)CC/C(=N\OC(=O)c5ccc([N+](=O)[O-])cc5)C(C)(C)C4CC[C@@]3(C)[C@]1(C)CC2 (some centres unmarked) :: 60.7 µM
CC1(C)CC[C@]2(C(=O)N3CCOCC3)CC[C@]3(C)C(=CCC4[C@@]5(C)CC/C(=N\OC(=O)c6cc([N+](=O)[O-])cc([N+](=O)[O-])c6)C(C)(C)C5CC[C@]43C)C2C1 (some centres unmarked) :: 6.01 µM
CC1(C)CCC2(C(=O)N3CCOCC3)CCC3(C)C(=CCC4C5(C)CCC(=NO)C(C)(C)C5CCC43C)C2C1 (centres unmarked) :: 8.72 µM

QUERY: Query IC50 on KB for COC(=O)[C@]12CCC(C)(C)CC1C1=CCC3[C@@]4(C)CC/C(=N\OC(=O)c5cc([N+](=O)[O-])cc([N+](=O)[O-])c5)C(C)(C)C4CC[C@@]3(C)[C@]1(C)CC2 (some centres unmarked)
RESULT: 4.61 µM

QUERY: Next compound up: CC1(C)CC[C@]2(C(=O)N3CCOCC3)CC[C@]3(C)C(=CCC4[C@@]5(C)CC/C(=N\OC(=O)c6cccc([N+](=O)[O-])c6)C(C)(C)C5CC[C@]43C)C2C1 (some centres unmarked)
RESULT: 13.9 µM

QUERY: Next compound up: CCC(=O)O/N=C1\CC[C@@]2(C)C(CC[C@]3(C)C2CC=C2C4CC(C)(C)CC[C@]4(C(=O)N4CCOCC4)CC[C@]23C)C1(C)C (some centres unmarked)
RESULT: 150 µM

====

# System: HeLa, KB, MCF-7, A-549 and HDF cell lines
# protocolText: MTT assay, statements over several tested cell lines
# Assay type: cell-based
# experimentalContext: summary over the tested cell lines; read-out: IC50 values for the tested cell lines (range or summary)
# key: entry, value: IC50

Recorded results for 2 molecules are shown here.
CC1(C)CC[C@]2(C(=O)N3CCOCC3)CC[C@]3(C)C(=CCC4[C@@]5(C)CC/C(=N\OC(=O)c6cc([N+](=O)[O-])cc([N+](=O)[O-])c6)C(C)(C)C5CC[C@]43C)C2C1 (stereo partly drawn) [Compound 7g] :: 4.19 to 8.98 µM
CC1(C)CC[C@]2(C(=O)N3CCOCC3)CC[C@]3(C)C(=CCC4[C@@]5(C)CC/C(=N\OC(=O)c6ccc([N+](=O)[O-])cc6)C(C)(C)C5CC[C@]43C)C2C1 (stereo partly drawn) [Compound 7f] :: 40 to 66 µM

QUERY: Endpoint output: IC50 of COC(=O)[C@]12CCC(C)(C)CC1C1=CCC3[C@@]4(C)CC/C(=N\OC(=O)c5ccc([N+](=O)[O-])cc5)C(C)(C)C4CC[C@@]3(C)[C@]1(C)CC2 (stereo partly drawn) [Compound 5f] . Value?
RESULT: 60.7 to 132 µM

QUERY: Next molecule up: CCC(=O)O/N=C1\CC[C@@]2(C)C(CC[C@]3(C)C2CC=C2C4CC(C)(C)CC[C@]4(C(=O)N4CCOCC4)CC[C@]23C)C1(C)C (stereo partly drawn) [Compound 7c]
RESULT: 140 to 180 µM

QUERY: Next molecule up: COC(=O)[C@]12CCC(C)(C)CC1C1=CCC3[C@@]4(C)CC/C(=N\OC(=O)c5cc([N+](=O)[O-])cc([N+](=O)[O-])c5)C(C)(C)C4CC[C@@]3(C)[C@]1(C)CC2 (stereo partly drawn) [Compound 5g]
RESULT: 4.19 to 8.98 µM

QUERY: Next molecule up: COC(=O)[C@]12CCC(C)(C)CC1C1=CC(=O)C3[C@@]4(C)CC/C(=N\OC(=O)c5cc([N+](=O)[O-])cc([N+](=O)[O-])c5)C(C)(C)C4CC[C@@]3(C)[C@]1(C)CC2 (stereo partly drawn) [Compound 6g]
RESULT: 5.39 to 8.98 µM

QUERY: Next molecule up: CC1(C)CC[C@]2(C(=O)N3CCOCC3)CC[C@]3(C)C(=CCC4[C@@]5(C)CC/C(=N\OC(=O)c6ccccc6)C(C)(C)C5CC[C@]43C)C2C1 (stereo partly drawn) [Compound 7d]
RESULT: 40 to 66 µM

QUERY: Next molecule up: CC1(C)CC[C@]2(C(=O)N3CCOCC3)CC[C@]3(C)C(=CCC4[C@@]5(C)CC/C(=N\OC(=O)CCl)C(C)(C)C5CC[C@]43C)C2C1 (stereo partly drawn) [Compound 7b]
RESULT: 15 to 40 µM

QUERY: Next molecule up: COC(=O)[C@]12CCC(C)(C)CC1C1=CCC3[C@@]4(C)CC/C(=N\OC(=O)c5cccc([N+](=O)[O-])c5)C(C)(C)C4CC[C@@]3(C)[C@]1(C)CC2 (stereo partly drawn) [Compound 5e]
RESULT: 20.1 to 38 µM

QUERY: Next molecule up: COC(=O)[C@]12CCC(C)(C)CC1C1=CCC3[C@@]4(C)CC/C(=N\OC(=O)c5ccccc5)C(C)(C)C4CC[C@@]3(C)[C@]1(C)CC2 (stereo partly drawn) [Compound 5d]
RESULT: 73.9 to 113 µM

QUERY: Next molecule up: CC(=O)O/N=C1\CC[C@@]2(C)C(CC[C@]3(C)C2CC=C2C4CC(C)(C)CC[C@]4(C(=O)N4CCOCC4)CC[C@]23C)C1(C)C (stereo partly drawn) [Compound 7a]
RESULT: ≥ 80 µM

QUERY: Next molecule up: CC1(C)CCC2(C(=O)N3CCOCC3)CCC3(C)C(=CCC4C5(C)CCC(=NO)C(C)(C)C5CCC43C)C2C1 (stereo not drawn) [Compound 4]
RESULT: 7 to 8 µM

====

# Tested on: A-549
# protocolText: MTT assay, A-549
# Type: cell-based
# experimentalContext: IC50 for normal cell line (HDF)/IC50 for A-549
measuredParameter: Selectivity Index A-549
// return just the number, without any unit appended

Recorded results for 4 compounds are shown here.
COC(=O)[C@]12CCC(C)(C)CC1C1=CCC3[C@@]4(C)CC/C(=N\OC(=O)c5ccccc5)C(C)(C)C4CC[C@@]3(C)[C@]1(C)CC2 (stereo partly shown) :: 1.53
CCC(=O)O/N=C1\CC[C@@]2(C)C(CC[C@]3(C)C2CC=C2C4CC(C)(C)CC[C@]4(C(=O)OC)CC[C@]23C)C1(C)C (stereo partly shown) :: 1.10
COC(=O)[C@]12CCC(C)(C)CC1C1=CC(=O)C3[C@@]4(C)CC/C(=N\OC(=O)c5cc([N+](=O)[O-])cc([N+](=O)[O-])c5)C(C)(C)C4CC[C@@]3(C)[C@]1(C)CC2 (stereo partly shown) :: 1.34
CC1(C)CC[C@]2(C(=O)N3CCOCC3)CC[C@]3(C)C(=CCC4[C@@]5(C)CC/C(=N\OC(=O)c6cccc([N+](=O)[O-])c6)C(C)(C)C5CC[C@]43C)C2C1 (stereo partly shown) :: 2.03

QUERY: Endpoint output: Selectivity Index A-549 of COC(=O)[C@]12CCC(C)(C)CC1C1=CCC3[C@@]4(C)CC/C(=N\OC(=O)c5cccc([N+](=O)[O-])c5)C(C)(C)C4CC[C@@]3(C)[C@]1(C)CC2 (stereo partly shown) . Value?
RESULT: 1.80

QUERY: Next compound up: CC1(C)CC[C@]2(C(=O)N3CCOCC3)CC[C@]3(C)C(=CCC4[C@@]5(C)CC/C(=N\OC(=O)c6ccc([N+](=O)[O-])cc6)C(C)(C)C5CC[C@]43C)C2C1 (stereo partly shown)
RESULT: 1.35

QUERY: Next compound up: CCC(=O)O/N=C1\CC[C@@]2(C)C(CC[C@]3(C)C2C(=O)C=C2C4CC(C)(C)CC[C@]4(C(=O)OC)CC[C@]23C)C1(C)C (stereo partly shown)
RESULT: 2.03

====

# key: entry, value: Selectivity Index A-549
# System: A-549
# protocolText: MTT assay, A-549
# Type: cell-based
# experimentalContext: IC50 for normal cell line (HDF)/IC50 for A-549
// return just the number, without any unit appended

Recorded results for 10 molecules are shown here.
CC1(C)CC[C@]2(C(=O)N3CCOCC3)CC[C@]3(C)C(=CCC4[C@@]5(C)CC/C(=N\OC(=O)c6cc([N+](=O)[O-])cc([N+](=O)[O-])c6)C(C)(C)C5CC[C@]43C)C2C1 (some centres unmarked) :: 1.40
CC1(C)CC[C@]2(C(=O)N3CCOCC3)CC[C@]3(C)C(=CCC4[C@@]5(C)CC/C(=N\OC(=O)c6ccccc6)C(C)(C)C5CC[C@]43C)C2C1 (some centres unmarked) :: 1.41
COC(=O)C12CCC(C)(C)CC1C1=CCC3C4(C)CCC(=NO)C(C)(C)C4CCC3(C)C1(C)CC2 (centres unmarked) [Compound 2, methyl oleanonate oxime] :: 1.62
COC(=O)[C@]12CCC(C)(C)CC1C1=CCC3[C@@]4(C)CC/C(=N\OC(=O)c5cc([N+](=O)[O-])cc([N+](=O)[O-])c5)C(C)(C)C4CC[C@@]3(C)[C@]1(C)CC2 (some centres unmarked) :: 1.29
COC(=O)[C@]12CCC(C)(C)CC1C1=CC(=O)C3[C@@]4(C)CC/C(=N\OC(=O)CCl)C(C)(C)C4CC[C@@]3(C)[C@]1(C)CC2 (some centres unmarked) :: 1.42
CCC(=O)O/N=C1\CC[C@@]2(C)C(CC[C@]3(C)C2CC=C2C4CC(C)(C)CC[C@]4(C(=O)N4CCOCC4)CC[C@]23C)C1(C)C (some centres unmarked) :: 1.21
COC(=O)[C@]12CCC(C)(C)CC1C1=CC(=O)C3[C@@]4(C)CC/C(=N\OC(=O)c5ccccc5)C(C)(C)C4CC[C@@]3(C)[C@]1(C)CC2 (some centres unmarked) :: 1.51
COC(=O)[C@]12CCC(C)(C)CC1C1=CCC3[C@@]4(C)CC/C(=N\OC(=O)CCl)C(C)(C)C4CC[C@@]3(C)[C@]1(C)CC2 (some centres unmarked) :: 1.87
COC(=O)C12CCC(C)(C)CC1C1=CC(=O)C3C4(C)CCC(=NO)C(C)(C)C4CCC3(C)C1(C)CC2 (centres unmarked) :: 0.97
COC(=O)[C@]12CCC(C)(C)CC1C1=CC(=O)C3[C@@]4(C)CC/C(=N\OC(=O)c5ccc([N+](=O)[O-])cc5)C(C)(C)C4CC[C@@]3(C)[C@]1(C)CC2 (some centres unmarked) :: 1.32

Query molecule follows.
QUERY: Query Selectivity Index A-549 on A-549 for COC(=O)[C@]12CCC(C)(C)CC1C1=CC(=O)C3[C@@]4(C)CC/C(=N\OC(C)=O)C(C)(C)C4CC[C@@]3(C)[C@]1(C)CC2 (some centres unmarked)
RESULT: 1.74
